Hello, the source for this data is patent US20220332795A1, in case you need it.

target: T1, CD71 apical domain (human, UniProt P02786 189-383, limits assumed); test: solution ELISA screen (luminescence)
T1 construct: domain: apical domain
T1 sequence (P02786 189-383 limits assumed): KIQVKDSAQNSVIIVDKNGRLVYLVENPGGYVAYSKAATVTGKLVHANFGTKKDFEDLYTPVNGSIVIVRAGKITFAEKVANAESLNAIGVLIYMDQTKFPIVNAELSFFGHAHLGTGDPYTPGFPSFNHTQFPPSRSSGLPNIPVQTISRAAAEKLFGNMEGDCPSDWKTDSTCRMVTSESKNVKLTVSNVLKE
experimental endpoint: RLU (RLU)
Give your result in RLU as a bare value.

Previously resolved entries follow.
Asked: Consider the binder SEQ ID NO 264 (designed binder, not shown: small tags and cut ends) MLPAPKNLVVSRVTEDSARLSWTAPDAAFDSFYIAYAEPRPDGEAINLSVPGSERSYDLTGLKPGTEYSVLIHGVKGGLLSSPLDAYFTT and give its recorded RLU.
Given back: 4.32e+06

Asked: Consider the binder SEQ ID NO 251 (designed binder, not shown: small tags and cut ends) MLPAPKNLVVSRVTEDSARLSWTAPDAAFDSFFIGYLEPQPPGEAIGLWVPGSERSYDLTGLKPGTEYNVTIQGVKGGFPSDPLQAVFTT and give its recorded RLU.
Given back: 5.73e+06

Asked: Consider the binder SEQ ID NO 240 (designed binder, not shown: small tags and cut ends) MLPAPKNLVVSRVTEDSARLSWTAPDAAFDSFYIAYAEPRPDGEAISLSVPGSERSYDLTGLKPGTEYSVLIHGVKGGLLSSPLHAKFTT and give its recorded RLU.
Given back: 5.26e+06

Asked: Consider the binder SEQ ID NO 256 (designed binder, not shown: small tags and cut ends) MLPAPKNLVVSRVTEDSARLSWTAPDAAFDSFYIAYAEPRPDGEAIQLTVPGSERSYDLTGLKPGTEYSVLIHGVKGGLLSSPLHAYFTT and give its recorded RLU.
Given back: 5.84e+06

Asked: Consider the binder SEQ ID NO 248 (designed binder, not shown: small tags and cut ends) MLPAPKNLVVSRVTEDSARLSWTAPDAAFDSFYIAYAEPRPDGEAIWLGVPGSERSYDLTGLKPGTEYSVLIHGVKGGLLSSPLHATFTT and give its recorded RLU.
Given back: 5.45e+06

Asked: Consider the binder SEQ ID NO 222 (designed binder, not shown: small tags and cut ends) MLPAPKNLVVSRVTEDSARLSWTAPDAAFDSFFIGYLEPQPPGEAIVLDVPGSERSYDLTGLKPGTEYNVTIQGVKGGFPSHPLAAAFTT and give its recorded RLU.
Given back: 1.07e+06

Asked: Consider the binder SEQ ID NO 250 (designed binder, not shown: small tags and cut ends) MLPAPKNLVVSRVTEDSARLSWTAPDAAFDSFYIAYAEPRPDGEAILLRVPGSERSYDLTGLKPGTEYSVLIHGVKGGLLSSPLYAKFTT and give its recorded RLU.
Given back: 5.54e+06

Asked: Consider the binder SEQ ID NO 270 (designed binder, not shown: small tags and cut ends) MLPAPKNLVVSRVTEDSARLSWTAPDAAFDSFAIEYCETKMCGEAIVLTVPGSERSYDLTGLKPGTEYRVPIPGVKGGTASLPLSAIFTT and give its recorded RLU.
Given back: 6.49e+06

Asked: Consider the binder SEQ ID NO 221 (designed binder, not shown: small tags and cut ends) MLPAPKNLVVSRVTEDSARLSWTAPDAAFDSFFIGYLEPQPPGEAIFLDVPGSERSYDLTGLKPGTEYNVTIQGVKGGFPSPLTAFFTT and give its recorded RLU.
Given back: 31800

Asked: Consider the binder SEQ ID NO 215 (designed binder, not shown: small tags and cut ends) MLPAPKNLVVSRVTEDSARLSWTAPDAAFDSFYIAYAEPRPDGEAIVLWVPGSERSYDLTGLKPGTEYSVLIHGVKGGLLSSPLIAEFTT and give its recorded RLU.
Given back: 5.84e+06

New cases:
Asked: Consider the binder SEQ ID NO 254 (designed binder, not shown: small tags and cut ends) MLPAPKNLVVSRVTEDSARLSWTAPDAAFDSFYIAYAEPRPDGEAILLAVPGSERSYDLTGLKPGTEYSVLIHGVKGGLLSSPLSAKFTT and give its recorded RLU.
Given back: 6.62e+06

Asked: Consider the binder SEQ ID NO 228 (designed binder, not shown: small tags and cut ends) MLPAPKNLVVSRVTEDSARLSWTAPDAAFDSFYIAYAEPRPDGEAIVLRVPGSERSYDLTGLKPGTEYSVLIHGVKGGLLSSPLAASFTT and give its recorded RLU.
Given back: 7.04e+06

Asked: Consider the binder SEQ ID NO 259 (designed binder, not shown: small tags and cut ends) MLPAPKNLVVSRVTEDSARLSWTAPDAAFDSFYIAYAEPRPDGEAIQLGVPGSERSYDLTGLKPGTEYSVLIHGVKGGLLSSPLLAVFTT and give its recorded RLU.
Given back: 5.96e+06

Asked: Consider the binder SEQ ID NO 207 (designed binder, not shown: small tags and cut ends) MLPAPKNLVVSRVTEDSARLSWTAPDAAFDSFYIAYAEPRPDGEAIHLSVPGSERSYDLTGLKPGTEYSVLIHGVKGGLLSSPLAAYFTT and give its recorded RLU.
Given back: 7.11e+06

Asked: Consider the binder SEQ ID NO 258 (designed binder, not shown: small tags and cut ends) MLPAPKNLVVSRVTEDSARLSWTAPDAAFDSFYIAYAEPRPDGEAILLEVPGSERSYDLTGLKPGTEYSVLIHGVKGGLLSSPLVAFFTT and give its recorded RLU.
Given back: 7.34e+06

Asked: Consider the binder SEQ ID NO 232 (designed binder, not shown: small tags and cut ends) MLPAPKNLVVSRVTEDSARLSWTAPDAAFDSFFIGYLEPQPPGEAIYLDVPGSERSYDLTGLKPGTEYNVTIQGVKGGFPSTFTT and give its recorded RLU.
Given back: 95400

Asked: Consider the binder SEQ ID NO 249 (designed binder, not shown: small tags and cut ends) MLPAPKNLVVSRVTEDSARLSWTAPDAAFDSFYIAYAEPRPDGEAIVLEVPGSERSYDLTGLKPGTEYSVLIHGVKGGLLSSPLHANFTT and give its recorded RLU.
Given back: 7.43e+06

Asked: Consider the binder SEQ ID NO 239 (designed binder, not shown: small tags and cut ends) MLPAPKNLVVSRVTEDSARLSWTAPDAAFDSFYIAYAEPRPDGEAIQLVVPGSERSYDLTGLKPGTEYSVLIHGVKGGLLSSPLYAIFTT and give its recorded RLU.
Given back: 4.65e+06
